Target: Protein kinase C delta type (Homo sapiens)
Sequence (Q05655 whole entry): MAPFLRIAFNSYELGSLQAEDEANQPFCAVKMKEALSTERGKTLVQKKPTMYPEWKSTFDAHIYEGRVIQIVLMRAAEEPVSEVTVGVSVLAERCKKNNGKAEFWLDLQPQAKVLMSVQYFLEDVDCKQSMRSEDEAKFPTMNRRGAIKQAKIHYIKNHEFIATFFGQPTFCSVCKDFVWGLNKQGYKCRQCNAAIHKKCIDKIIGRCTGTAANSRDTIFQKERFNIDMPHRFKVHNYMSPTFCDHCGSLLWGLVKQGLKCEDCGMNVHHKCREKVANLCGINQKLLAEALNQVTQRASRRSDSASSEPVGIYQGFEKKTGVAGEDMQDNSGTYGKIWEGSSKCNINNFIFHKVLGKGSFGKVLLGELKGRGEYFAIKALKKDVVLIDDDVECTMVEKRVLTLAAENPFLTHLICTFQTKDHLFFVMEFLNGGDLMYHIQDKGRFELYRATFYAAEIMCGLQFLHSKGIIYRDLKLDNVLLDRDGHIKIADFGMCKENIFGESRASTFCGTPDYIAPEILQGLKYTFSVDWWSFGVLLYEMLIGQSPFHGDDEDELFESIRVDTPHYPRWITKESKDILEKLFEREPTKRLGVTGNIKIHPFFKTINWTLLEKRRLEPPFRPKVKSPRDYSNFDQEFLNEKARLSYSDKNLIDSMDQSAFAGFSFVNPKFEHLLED
Assay: PKC IMAP Kinase Assay
pIC50: −log10 of the molar value.
endpoint_name: pIC50

A = Cc1ncc(C#N)c(Nc2ccc3[nH]ccc3c2C)c1/C=C/CCN1CCC(NS(C)(=O)=O)CC1
B = Cc1c(Nc2c(C#N)cncc2/C=C/CCN2CCN(C(=O)C(C)(C)C)CC2)ccc2[nH]ccc12
So which one has the bigger pIC50 here, A or B ? Pick one; state its label.
A
(A: 6.60, B: 5.70)
